System: Staphylococcus epidermidis
Experiment: Antibacterial activity against methicillin-resistant Staphylococcus epidermidis ATCC 35984 after 16 to 18 hrs by broth microdilution method
Type: functional
Under this convention, Satisfied denotes MIC strictly below 3 µM and Not satisfied denotes MIC at or above 3 µM.

These solved cases illustrate the format of a correct answer.
Cc1nc2c(O)c(Br)cc(Br)c2cc1C(=O)N1CCOCC1 : Not satisfied
CC(=O)NC[C@H]1CN(c2ccc(N3CCOCC3)c(F)c2)C(=O)O1 [LINEZOLID] : Not satisfied
CCOC(=O)c1cc2c(Br)cc(Br)c(O)c2nc1C : Satisfied
CCCCCCCCCC(=O)N[C@@H](Cc1c[nH]c2ccccc12)C(=O)N[C@@H](CC(N)=O)C(=O)N[C@@H](CC(=O)O)C(=O)N[C@@H]1C(=O)NCC(=O)N[C@@H](CCCN)C(=O)N[C@@H](CC(=O)O)C(=O)N[C@H](C)C(=O)N[C@@H](CC(=O)O)C(=O)NCC(=O)N[C@H](CO)C(=O)N[C@@H]([C@H](C)CC(=O)O)C(=O)N[C@@H](CC(=O)c2ccccc2N)C(=O)O[C@@H]1C [DAPTOMYCIN] : Not satisfied
Cc1nc2c(O)c(Br)cc(Br)c2cc1C(=O)O : Not satisfied

Is MIC strictly under 3 µM for the entry `COC(=O)c1cc2c(Br)cc(Br)c(O)c2nc1C` ?
Satisfied

Is MIC strictly under 3 µM for the entry `CCOC(=O)c1c(C)nc2c(O)c(Br)cc(Br)c2c1C` ?
Satisfied

Is MIC strictly under 3 µM for the entry `CCc1nc2c(O)c(Br)cc(Br)c2cc1C` ?
Satisfied
